- Tested on: Escherichia coli (ATCC 25922)
- Test context: LYM broth, pH 5.5

{"Substance": "Ac-KKWRKWLKWLAKK-NH2 [W5K/A9W]", "Target desc": "Escherichia coli (ATCC 25922)", "MIC / µg/mL": 1.56}
{"Substance": "Ac-WLKWLAKKKKWRK-NH2 [Peptide W5K05]", "Target desc": "Escherichia coli (ATCC 25922)", "MIC / µg/mL": 1.56}
{"Substance": "Ac-AKKKKWRKWLKWL-NH2 [Peptide W5K10]", "Target desc": "Escherichia coli (ATCC 25922)", "MIC / µg/mL": 1.56}
{"Substance": "Ac-LKWLAKKKKWRKW-NH2 [Peptide W5K06]", "Target desc": "Escherichia coli (ATCC 25922)", "MIC / µg/mL": 6.25}
{"Substance": "Ac-KWLAKKKKWRKWL-NH2 [Peptide W5K07]", "Target desc": "Escherichia coli (ATCC 25922)", "MIC / µg/mL": 6.25}
{"Substance": "Ac-WLAKKKKWRKWLK-NH2 [Peptide W5K08]", "Target desc": "Escherichia coli (ATCC 25922)", "MIC / µg/mL": 3.13}
{"Substance": "Ac-KKKWRKWLKWLAK-NH2 [Peptide W5K12]", "Target desc": "Escherichia coli (ATCC 25922)", "MIC / µg/mL": 1.56}
{"Substance": "Ac-RKWLKWLAKKKKW-NH2 [Peptide W5K03]", "Target desc": "Escherichia coli (ATCC 25922)", "MIC / µg/mL": 6.25}
{"Substance": "Ac-KWLKWLAKKKKWR-NH2 [Peptide W5K04]", "Target desc": "Escherichia coli (ATCC 25922)", "MIC / µg/mL": 3.13}
{"Substance": "Ac-KKKKWRKWLKWLA-NH2 [Peptide W5K11]", "Target desc": "Escherichia coli (ATCC 25922)", "MIC / µg/mL": 1.56}
{"Substance": "Ac-LAKKKKWRKWLKW-NH2 [Peptide W5K09]", "Target desc": "Escherichia coli (ATCC 25922)", "MIC / µg/mL": 3.13}
{"Substance": "Ac-KWRKWLKWLAKKK-NH2 [Peptide W5K01]", "Target desc": "Escherichia coli (ATCC 25922)", "MIC / µg/mL": 3.13}
{"Substance": "Ac-WRKWLKWLAKKKK-NH2 [Peptide W5K02]", "Target desc": "Escherichia coli (ATCC 25922)", "MIC / µg/mL": 3.13}

###

- System: A. baumannii 14B0097 (Acinetobacter sp., BCRC number 14B0097)
- Test context: LYM broth, 0 mM NaCl; 16 h, 37 °C

{"Substance": "Ac-WLAKKKKWRKWLK-NH2 [Peptide W5K08]", "Measurement unit": "µg/mL", "MIC": 3.13}
{"Substance": "Ac-KKKKWRKWLKWLA-NH2 [Peptide W5K11]", "Measurement unit": "µg/mL", "MIC": 1.56}
{"Substance": "Ac-KWLKWLAKKKKWR-NH2 [Peptide W5K04]", "Measurement unit": "µg/mL", "MIC": 1.56}
{"Substance": "Ac-KKKWRKWLKWLAK-NH2 [Peptide W5K12]", "Measurement unit": "µg/mL", "MIC": 1.56}
{"Substance": "Ac-LKWLAKKKKWRKW-NH2 [Peptide W5K06]", "Measurement unit": "µg/mL", "MIC": 3.13}
{"Substance": "Ac-KWRKWLKWLAKKK-NH2 [Peptide W5K01]", "Measurement unit": "µg/mL", "MIC": 1.56}
{"Substance": "Ac-LAKKKKWRKWLKW-NH2 [Peptide W5K09]", "Measurement unit": "µg/mL", "MIC": 3.13}
{"Substance": "Ac-KWLAKKKKWRKWL-NH2 [Peptide W5K07]", "Measurement unit": "µg/mL", "MIC": 3.13}
{"Substance": "Ac-WLKWLAKKKKWRK-NH2 [Peptide W5K05]", "Measurement unit": "µg/mL", "MIC": 1.56}
{"Substance": "Ac-AKKKKWRKWLKWL-NH2 [Peptide W5K10]", "Measurement unit": "µg/mL", "MIC": 1.56}
{"Substance": "Ac-WRKWLKWLAKKKK-NH2 [Peptide W5K02]", "Measurement unit": "µg/mL", "MIC": 1.56}
{"Substance": "Ac-RKWLKWLAKKKKW-NH2 [Peptide W5K03]", "Measurement unit": "µg/mL", "MIC": 1.56}
{"Substance": "Ac-KKWRKWLKWLAKK-NH2 [W5K/A9W]", "Measurement unit": "µg/mL", "MIC": 1.56}

Data origin: paper PMC12649549
